# Test system: Bacillus subtilis
# Test name: Antibacterial activity against Bacillus subtilis DSM10 by serial dilution method
# Assay type: functional
Calls of active or inactive are those of the source. No cut-off for these calls is given here.

[
  {
    "Smiles string": "CN(C)[C@@H]1C(O)=C(C(N)=O)C(=O)[C@@]2(O)C(O)=C3C(=O)c4c(O)cccc4[C@@](C)(O)[C@H]3[C@H](O)[C@@H]12",
    "Study system": "Bacillus subtilis",
    "MIC": "2.08 µg/mL"
  },
  {
    "Smiles string": "CC1=C/[C@H](O)[C@H](O)\\C=C/C=C/C=C/C=C\\C=C/[C@H](C)CNC(=O)\\C=C/C=C/1",
    "Study system": "Bacillus subtilis",
    "MIC": "inactive"
  },
  {
    "Smiles string": "C/C1=C/C=C/C(C)=C/C=C/C=C\\C=C/[C@H](C)CNC(=O)/C(C)=C/C=C/C(C)=C/C=C/C=C\\C=C/[C@H](C)CNC1=O",
    "Study system": "Bacillus subtilis",
    "MIC": "inactive"
  },
  {
    "Smiles string": "C\\C1=C/C=C/C=C/C=C\\C=C/[C@H](C)CNC(=O)/C(C)=C/C=C/C=C/C=C\\C=C/[C@H](C)CNC1=O",
    "Study system": "Bacillus subtilis",
    "MIC": "inactive"
  },
  {
    "Smiles string": "CC1=C\\C=C\\C=C\\C=C/C=C\\[C@H](C)CNC(=O)/C(C)=C/C=C/C=C/C=C\\C=C/[C@H](C)CNC(=O)\\C(C)=C\\1",
    "Study system": "Bacillus subtilis",
    "MIC": "inactive"
  }
]

* * *

Quick reference for IC50 among some compounds
# Tested on: KB 3-1
# Test name: Cytotoxicity against human KB3-1 cells measured after 5 days by MTT assay
# Type: functional, cell-based
# Experimental parameters: Homo sapiens, KB 3-1, 120 h; read-out: IC50

[
  {
    "Smiles string": "C/C(=C\\c1csc(C)n1)[C@@H]1C[C@@H]2O[C@]2(C)CCC[C@H](C)[C@H](O)[C@@H](C)C(=O)C(C)(C)[C@@H](O)CC(=O)O1",
    "IC50 (µM)": "5.3e-05"
  },
  {
    "Smiles string": "CC1=C\\C=C\\C=C/C=C\\[C@H](C)CNC(=O)/C(C)=C/C=C/C(C)=C/C=C/C=C\\C=C/[C@H](C)CNC(=O)\\C(C)=C\\C=C\\1",
    "IC50 (µM)": 2.4
  },
  {
    "Smiles string": "CC1=C\\C=C\\C=C\\C=C/C=C\\[C@H](C)CNC(=O)/C(C)=C/C=C/C=C/C=C\\C=C/[C@H](C)CNC(=O)\\C(C)=C\\1",
    "IC50 (µM)": 5.4
  },
  {
    "Smiles string": "C\\C1=C/C=C/C=C/C=C\\C=C/[C@H](C)CNC(=O)/C(C)=C/C=C/C=C/C=C\\C=C/[C@H](C)CNC1=O",
    "IC50 (µM)": 6.8
  }
]

* * *

# Tested on: PC-3
# Test name: Cytotoxicity against human PC3 cells measured after 5 days by MTT assay
# Assay type: functional, cell-based
# Experimental parameters: PC-3, 120 h
pIC50: −log10 of the molar value.
Each entry below carries its recorded pIC50.

[
  {
    "Smiles string": "C/C(=C\\c1csc(C)n1)[C@@H]1C[C@@H]2O[C@]2(C)CCC[C@H](C)[C@H](O)[C@@H](C)C(=O)C(C)(C)[C@@H](O)CC(=O)O1",
    "pIC50": 8.66
  },
  {
    "Smiles string": "CC1=C\\C=C\\C=C/C=C\\[C@H](C)CNC(=O)/C(C)=C/C=C/C(C)=C/C=C/C=C\\C=C/[C@H](C)CNC(=O)\\C(C)=C\\C=C\\1",
    "pIC50": 5.68
  },
  {
    "Smiles string": "CC1=C\\C=C\\C=C\\C=C/C=C\\[C@H](C)CNC(=O)/C(C)=C/C=C/C=C/C=C\\C=C/[C@H](C)CNC(=O)\\C(C)=C\\1",
    "pIC50": 5.30
  },
  {
    "Smiles string": "C\\C1=C/C=C/C=C/C=C\\C=C/[C@H](C)CNC(=O)/C(C)=C/C=C/C=C/C=C\\C=C/[C@H](C)CNC1=O",
    "pIC50": 5.20
  }
]

* * *

# IC50 values compiled below
# System: MCF7
# Test name: Cytotoxicity against human MCF7 cells measured after 5 days by MTT assay
# Type: functional, cell-based
# Experimental parameters: MCF7, 120 h

[
  {
    "Compound": "C/C(=C\\c1csc(C)n1)[C@@H]1C[C@@H]2O[C@]2(C)CCC[C@H](C)[C@H](O)[C@@H](C)C(=O)C(C)(C)[C@@H](O)CC(=O)O1 [PATUPILONE]",
    "IC50, µM": "7.4e-05"
  },
  {
    "Compound": "CC1=C\\C=C\\C=C\\C=C/C=C\\[C@H](C)CNC(=O)/C(C)=C/C=C/C=C/C=C\\C=C/[C@H](C)CNC(=O)\\C(C)=C\\1",
    "IC50, µM": 18.1
  },
  {
    "Compound": "C\\C1=C/C=C/C=C/C=C\\C=C/[C@H](C)CNC(=O)/C(C)=C/C=C/C=C/C=C\\C=C/[C@H](C)CNC1=O",
    "IC50, µM": 16.4
  }
]

* * *

# Test system: A549
# Test name: Cytotoxicity against human A549 cells measured after 5 days by MTT assay
# Type: functional, cell-based
# Experimental parameters: A549, 120 h

[
  {
    "Compound": "C\\C1=C/C=C/C=C/C=C\\C=C/[C@H](C)CNC(=O)/C(C)=C/C=C/C=C/C=C\\C=C/[C@H](C)CNC1=O",
    "Measure unit": "µM",
    "IC50": 16.3
  },
  {
    "Compound": "CC1=C\\C=C\\C=C/C=C\\[C@H](C)CNC(=O)/C(C)=C/C=C/C(C)=C/C=C/C=C\\C=C/[C@H](C)CNC(=O)\\C(C)=C\\C=C\\1",
    "Measure unit": "µM",
    "IC50": 6.5
  },
  {
    "Compound": "CC1=C\\C=C\\C=C\\C=C/C=C\\[C@H](C)CNC(=O)/C(C)=C/C=C/C=C/C=C\\C=C/[C@H](C)CNC(=O)\\C(C)=C\\1",
    "Measure unit": "µM",
    "IC50": 32.1
  },
  {
    "Compound": "C/C(=C\\c1csc(C)n1)[C@@H]1C[C@@H]2O[C@]2(C)CCC[C@H](C)[C@H](O)[C@@H](C)C(=O)C(C)(C)[C@@H](O)CC(=O)O1 [PATUPILONE]",
    "Measure unit": "µM",
    "IC50": 0.004
  }
]

* * *

Each item that follows carries a reported MIC.
# Tested on: Staphylococcus aureus
# Test name: Antibacterial activity against Staphylococcus aureus Newman by serial dilution method
# Format: functional
Property name: MIC

[
  {
    "Smiles string": "CC1=C\\C=C\\C=C\\C=C/C=C\\[C@H](C)CNC(=O)/C(C)=C/C=C/C=C/C=C\\C=C/[C@H](C)CNC(=O)\\C(C)=C\\1",
    "Property name": "MIC",
    "Meas value": "16.7 mg/L"
  },
  {
    "Smiles string": "C\\C1=C/C=C/C=C/C=C\\C=C/[C@H](C)CNC(=O)/C(C)=C/C=C/C=C/C=C\\C=C/[C@H](C)CNC1=O",
    "Property name": "MIC",
    "Meas value": "66.7 mg/L"
  },
  {
    "Smiles string": "CN(C)[C@@H]1C(O)=C(C(N)=O)C(=O)[C@@]2(O)C(O)=C3C(=O)c4c(O)cccc4[C@@](C)(O)[C@H]3[C@H](O)[C@@H]12",
    "Property name": "MIC",
    "Meas value": "0.05 mg/L"
  },
  {
    "Smiles string": "CC1=C\\C=C\\C=C/C=C\\[C@H](C)CNC(=O)/C(C)=C/C=C/C(C)=C/C=C/C=C\\C=C/[C@H](C)CNC(=O)\\C(C)=C\\C=C\\1",
    "Property name": "MIC",
    "Meas value": "66.7 mg/L"
  }
]
